system: CCRIS mutagenicity, Ames/micronucleus/aberration tests; assay: CCRIS mutagenicity studies; settings: Test System: AMES SALMONELLA TYPHIMURIUM; Strain/Indicator: TA100; Metabolic Activation: RAT, LIVER, S-9, AROCLOR 1254; Method: STANDARD PLATE
The source made the active and inactive calls. No rule for the calls is given here.

compound	mutagenic call
O=C(CCl)c1ccc(Cl)cc1Cl	inactive; negative
CC(C)=CC1C(C(=O)OCc2coc(Cc3ccccc3)c2)C1(C)C (stereo not drawn)	inactive; negative
COC(=O)C12OC1(C)C(C)(O)OC2=O (stereo not drawn)	inactive; negative

----------
tested on: CCRIS mutagenicity, Ames/micronucleus/aberration tests; experiment: CCRIS mutagenicity studies; conditions: Test System: AMES SALMONELLA TYPHIMURIUM; Strain/Indicator: TA98; Metabolic Activation: NONE; Method: STANDARD PLATE
The source made the active and inactive calls. No rule for the calls is given here.

compound	mutagenic call
COP(=S)(OC)SCC(=O)N(C)C=O	inactive; negative
CC(C(=O)O)c1ccc(Oc2nccs2)cc1 (configuration not stated)	inactive; negative
ClCC1C(CCl)[C@@]2(Cl)C(Cl)=C(Cl)[C@]1(Cl)C2(Cl)Cl (some centres not stated)	inactive; negative
COP(=O)(OC)Oc1ccc([N+](=O)[O-])c(C)c1	inactive; negative
CC(=O)Nc1ccc2ccc3cccc4ccc1c2c34	inactive; negative
CC(C)(C#N)C(C)(C)C#N	inactive; negative
CC(C)c1cc(-c2ccccc2)cc(C(C)C)c1N	inactive; negative

----------
test system: CCRIS mutagenicity, Ames/micronucleus/aberration tests; test: CCRIS mutagenicity studies; details: Test System: AMES SALMONELLA TYPHIMURIUM; Strain/Indicator: TA1537; Metabolic Activation: RAT, LIVER, S-9, AROCLOR 1254; Method: STANDARD PLATE
Activity calls are given as the source filed them. The rule behind the calls is not given here.
Possible outcomes: label 1 for active, label 0 for inactive

molecule	label
COc1cccc2c1cc1c3c(cc4c(c32)OCO4)C(=O)N1	label 1
CCCCOC(=O)c1cccc2cccnc12	label 0
CN(C)CC/C=C1\c2ccccc2COc2ccccc21	label 0
CC(C)=CC1C(C(=O)OCc2cccc(Oc3ccccc3)c2)C1(C)C (stereo unspecified)	label 0
C[C@]12C=CC3=C4CCC(=O)C=C4CC[C@H]3[C@@H]1CC[C@H]2O	label 0
CC(C(=O)O)c1ccc(Oc2nccs2)cc1 (stereo unspecified)	label 0
